pIC50: −log10 of the molar value.
Observed pIC50 for UniProtKB P05177, reported per entry below.
Sequence (P05177 whole entry): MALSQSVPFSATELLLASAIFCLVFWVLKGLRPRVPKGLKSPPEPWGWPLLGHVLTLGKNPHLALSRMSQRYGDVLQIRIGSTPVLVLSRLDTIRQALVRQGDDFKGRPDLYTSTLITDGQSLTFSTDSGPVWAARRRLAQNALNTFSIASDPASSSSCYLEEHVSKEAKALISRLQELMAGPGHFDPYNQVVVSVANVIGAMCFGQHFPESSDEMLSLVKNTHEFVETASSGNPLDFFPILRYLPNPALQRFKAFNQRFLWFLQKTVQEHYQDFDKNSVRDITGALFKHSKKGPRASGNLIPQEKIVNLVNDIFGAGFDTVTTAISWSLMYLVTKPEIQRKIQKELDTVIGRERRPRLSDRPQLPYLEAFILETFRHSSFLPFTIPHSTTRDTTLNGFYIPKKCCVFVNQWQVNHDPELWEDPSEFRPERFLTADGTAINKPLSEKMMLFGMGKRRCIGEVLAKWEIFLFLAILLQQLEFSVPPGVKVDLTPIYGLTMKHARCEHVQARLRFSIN

## Input What pIC50 appears in the records for this compound with UniProtKB P05177? O=C(NOCCO)c1ccn2cncc2c1Nc1ccc(I)cc1F
## Output < 5.00

Others:
## Input What pIC50 appears in the records for this compound with UniProtKB P05177? O=C(NOCCO)c1oc2ccncc2c1Nc1ccc(I)cc1F
## Output < 5.00

---

Recorded measurements of IC50, one per entry
EXPERIMENTAL_SYSTEM: Cytochrome P450 3A4 (Homo sapiens)
Sequence (P08684 whole entry): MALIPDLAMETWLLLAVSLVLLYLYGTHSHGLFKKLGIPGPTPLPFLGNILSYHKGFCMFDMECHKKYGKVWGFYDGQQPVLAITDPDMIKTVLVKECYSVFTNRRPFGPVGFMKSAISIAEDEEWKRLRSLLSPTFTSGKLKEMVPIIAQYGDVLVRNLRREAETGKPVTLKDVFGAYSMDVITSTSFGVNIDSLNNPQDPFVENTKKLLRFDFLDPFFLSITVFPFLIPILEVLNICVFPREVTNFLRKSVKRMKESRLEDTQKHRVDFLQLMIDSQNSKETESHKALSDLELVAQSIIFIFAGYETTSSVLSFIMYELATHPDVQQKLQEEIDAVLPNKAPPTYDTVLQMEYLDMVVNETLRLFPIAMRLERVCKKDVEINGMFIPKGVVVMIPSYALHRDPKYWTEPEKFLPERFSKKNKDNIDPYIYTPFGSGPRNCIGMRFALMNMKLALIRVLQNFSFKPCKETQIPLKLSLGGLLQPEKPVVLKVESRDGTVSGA
EXPERIMENT_SUMMARY: Inhibition of CYP3A4 (unknown origin) using midazolam substrate
Format: ADME

## Input Recorded IC50 of O=C(NOCCO)c1ccc2cnsc2c1Nc1ccc(I)cc1F , please.
## Output 9 µM

## Input Recorded IC50 of O=C(NOCCO)c1ccn2cncc2c1Nc1ccc(I)cc1F , please.
## Output > 10 µM

## Input Recorded IC50 of O=C(NOCCO)c1oc2ccncc2c1Nc1ccc(I)cc1F , please.
## Output > 10 µM

Others:
## Input Recorded IC50 of O=C(NOCCO)c1ccc2cncn2c1Nc1ccc(I)cc1F , please.
## Output > 10 µM
